System: K4 kissing-loop RNA reporter;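 also: bound reporter read as fluorescence of individual clusters on recovered sequencing chips by microscopy, with normalized cluster intensities fitted with a binding model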
Method Summary: apparent KD of K4 kissing-loop reporter; higher = weaker reporter binding
Experimental Context: Eterna round: R107; input ligand: FMN 200 uM
Classification field: enter y for apparent KD of K4 kissing-loop reporter values not below 200 nM, n for values below it.

>>> assigned_class("UAACGACUCGGAAGGAGCGCGGUUUUAAAAGACUAAGGCCGAGUGAUGUUCGGAGAAGUCCCGCAGGUAGGUCGCCGGGUUGUGG [Ceororedar]")
"n"
>>> assigned_class("UAGUCCUAGUGAUGGUUAUCACGUGGUGGGCGAGGACCGGUACGGCCGCCACUCGACUUUGCAGUGAUGUUGCAAACCGGACAAU [Exclusion - Tryptophan A (Freestyle 18)]")
"y"
>>> assigned_class("AAACUUGCAGUGAUGUUGCAAGUAGGUGAUACCAGCAUCGAAAGAUGCCCUUGGCAGCACCAAAACAUCACUUAGGUGCUGUCUA [(H1)-(H2)-(T1)-(T2)-(H)'-(T)'_Design6]")
"y"
>>> assigned_class("CGAGUGAUGUUCGAAGAGUUGUUAAGCGAUACCAGCUAGGAAACUGGCCCUUGGCAGCGUAAUAAGUUAAUAAAUAAAUGAUCAC [whbob_Ex_Theo_A_th64]")
"y"
>>> assigned_class("UAUAUACAUUUAUUAAUUAAAGGUUCAGAAGGAGCGUGAAUUAACACAGGUAGGUCGCUGAGCGAGUGAUGUUCGCUAUAUGGUA [JR_ExcArginiA_Sub005]")
"n"

Prompt: Does the reported apparent KD of K4 kissing-loop reporter for GCCGUACGCAUGGAUACCAGAUGGCACUAUAAUCUACCAGAGUGAUGUUCUGGCCUGCCCAUCCCUUGGCAGCCAUGCGUACGGC fall at or above the 200 nM mark?
Completion: y

Prompt: And the next one, CUCGAGUGAUGUUCGAUUAUGUAUACAGAUACCAGUGAAUUUUAACACCCUUGGCAGCUGGUAGAAUCUUUGUAAUUUUAACUAG [JR_ExcTheophyA_Sub002] ?
Completion: n

Prompt: And the next one, CGCCGUAAGGCGGUCGCUCCCACUCCGGAAGGAGCGCCCGUAAGGGCAGGUAGGUCGCCGGAGUGAUGUUCCGGUGGAGGGACCG [#2 Exclusion - Arginine A Attempt #8 (Inspired by Omei)] ?
Completion: y

Prompt: And the next one, CUGUCCUACGAAGGAUAUGCUGAUGGGAUCAAACAGUGAUGUUGUUAUGAACUUAGGCUUAUGUGCGCAGAAGGUCGUGGCGACG [theeternabot_sameState_KL_FMN_B_42] ?
Completion: y

Prompt: And the next one, UAGAGGAGACUCUAAUUCCUUAAGUCCGAAGGAGCGACCCAAUGGUCAGGUAGGUCGCGGACAAUCCUAGUGAUGUUAGGAUCUG [Arg A SS t5a] ?
Completion: n

Prompt: And the next one, AGUAUUGAGUCGGCCGCCACUGGUUUAAUGAGUGUCAAUUCUGGAUCAAAGUGAUGUUUUGGAGCUAGGACCGGGACCAUUGUUA [#07 K4 Tryptophan B Exclusion] ?
Completion: y

Source listed as the supplement of paper PMC9170038.
